Cited source: patent US9447038B2

Subject Of Test: human CXCR3-A receptor (Homo sapiens (Human), UniProt P49682)
Sequence (P49682 whole entry): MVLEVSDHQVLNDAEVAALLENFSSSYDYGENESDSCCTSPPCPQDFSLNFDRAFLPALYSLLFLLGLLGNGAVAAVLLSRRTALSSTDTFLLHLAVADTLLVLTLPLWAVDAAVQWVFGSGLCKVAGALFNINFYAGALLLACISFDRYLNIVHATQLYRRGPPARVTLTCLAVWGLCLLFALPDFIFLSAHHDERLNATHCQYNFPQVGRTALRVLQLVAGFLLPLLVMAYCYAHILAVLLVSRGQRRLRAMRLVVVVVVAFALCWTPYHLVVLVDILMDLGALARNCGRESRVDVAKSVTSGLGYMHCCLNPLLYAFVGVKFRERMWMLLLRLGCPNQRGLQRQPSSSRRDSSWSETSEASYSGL
Method Notes: 125I-CXCL10 competition radioligand binding assay;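 further: One-hour incubation of membranes with tracer, bound radioligand separated by glass fibre filtration, IC50 derived from four-parameter nonlinear fit of competition curves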
Reported Conditions: displacement of 125I-CXCL10 from membranes of CHO cells expressing human recombinant CXCR3-A
Measured Metric: IC50 (nM)
Just the number please, in nM, no unit attached.

Compound	Subject Of Test	Observed
Cc1cc(CN(CC2CCCCC2)C(CC(=O)O)c2ccc(Cl)c(Cl)c2)ccc1OCCN1C(=O)CCC1=O (stereo not shown) [Example 83]	human CXCR3-A receptor (Homo sapiens (Human), UniProt P49682)	302

Challenge: Looking for the measured IC50 of CCCN(Cc1ccc(OCCN2C(=O)CCC2=O)c(CC)c1)C(CC(=O)O)c1ccc(Cl)c(F)c1 (stereo not shown) [Example 91] , can you help?
Response given: 56

Challenge: May I ask what IC50 has been recorded for O=C(O)CC(c1ccc(Cl)cc1)N(Cc1ccc(OCCN2C(=O)CCC2=O)c(F)c1)CC1CCCC1 (stereo not shown) [Example 56] ?
Response given: 52

Challenge: What does the data say about its IC50? Entry: CCc1cc(CN(CC2CCCCC2)C(CC(=O)O)c2ccc(Cl)c(Cl)c2)ccc1OCCN1C(=O)CCC1=O (stereo not shown) [Example 101]
Response given: 292
